These measurements were taken from the supplement of paper PMC7156485.

- System: HCC1569
- assay.text: H1.0 immunofluorescence intensity relative to DMSO (% of DMSO); higher = stronger H1.0 induction, active = 140 or more
- run.parameters: concentration: 10 µM; 24 h
This listing pairs compounds with measured H1.0 immunofluorescence intensity.

compound	recorded.metric	measurement
C=CCc1ccccc1OCC(O)CNC(C)C.Cl (stereo not given) [Alprenolol.HCl]	H1.0 immunofluorescence intensity	102 (inactive)

The compound CCCCCCCNC1CCCC1CCCCCCC(=O)O (racemic) , when measured on HCC1569, yielded H1.0 immunofluorescence intensity of 89.4 (inactive)

The compound c1ccc2c(-c3ccncc3)c[nH]c2c1 [Rho Kinase Inhibitor III, Rockout] , when measured on HCC1569, yielded H1.0 immunofluorescence intensity of 118 (inactive)

The compound CCCCCCCCCCCCCCCC(=O)OCC=C(C)C=CC=C(C)C=CC1=C(C)CCCC1(C)C [Retinyl palmitate] , when measured on HCC1569, yielded H1.0 immunofluorescence intensity of 101 (inactive)

----------
- Tested on: HCC1569
- assay.text: H1.0 immunofluorescence intensity relative to DMSO (% of DMSO); higher = stronger H1.0 induction, active = 140 or more
- run.parameters: concentration: 10 µM; 24 h
Please answer using one outcome listed in true (active), false (inactive)

Take a look at these entries with their results.
molecule	answer.label
N=C([NH3+])N1CCc2ccccc2C1.N=C([NH3+])N1CCc2ccccc2C1.O=S(=O)([O-])[O-] [Debrisoquin sulfate]	false
C=CCSC[C@H](N)C(=O)O [(2R)-3-(allylsulfanyl)-2-aminopropanoic acid]	false
O=c1c(O)c(-c2ccccc2)oc2cc(O)cc(O)c12 [Galangine]	false
CCCCC=CCCCCCCCCC(=O)O [10(Z)-Pentadecenoic acid]	false
CCC(NC(C)C)C(O)c1ccc(O)c(O)c1.CS(=O)(=O)O (stereo unspecified) [Isotharine mesylate]	false

What classification did Cl.NCCCC(N)(C(=O)O)C(F)F (racemic) [DL-alpha-Difluoromethylornithine hydrochloride] end up with in this test?
false

What classification did COc1c(O)cc(O)c2c(=O)cc(-c3ccccc3)oc12 [Wogonin] end up with in this test?
false

What classification did O=C(O)CCCC=CCC1C2CCC(O2)C1CNNC(=O)Nc1ccccc1 (stereo unspecified) end up with in this test?
false

What classification did CCCNC(=O)NS(=O)(=O)c1ccc(Cl)cc1 [Chlorpropamide] end up with in this test?
false

----------
- Test system: TDF
- assay.text: H1.0 immunofluorescence intensity relative to DMSO (% of DMSO); higher = stronger H1.0 induction, active = 120 or more
- run.parameters: concentration: 10 µM; 24 h
Please answer using one outcome listed in 1.0 = active, 0.0 = inactive

Take a look at these entries with their results.
compound	target.of.assay	answer.label
CCc1cccc(N(C)C(N)=Nc2cccc3ccccc23)c1.Cl	TDF	0.0
CC1CCC2(C(=O)O)CCC3(C)C(=CCC4C5(C)CCC(O)C(C)(C)C5CCC43C)C2C1C (stereo not given)	TDF	0.0
CNC(=O)C1OC(n2cnc3c(NCc4ccc(N)cc4)ncnc32)C(O)C1O (stereo not given)	TDF	0.0
CC1(C)CCC2=C(O1)c1ccccc1C(=O)C2=O	TDF	0.0
CCn1c(=O)c2[nH]c(-c3ccccc3)nc2n(CC)c1=O	TDF	0.0
COc1cccc(/C=N/CC/N=C/c2cccc(OC)c2[O-])c1[O-].[Cl-].[Mn+2]	TDF	0.0
COc1ccc(N2C(=O)CSC2c2cccc(Br)c2)c(OC)c1 (stereo not given)	TDF	1.0
OCCN(CCO)c1nc(N2CCCCC2)c2nc(N(CCO)CCO)nc(N3CCCCC3)c2n1	TDF	0.0
CN1CCN(c2c(F)cc3c(=O)c(C(=O)O)cn(CCF)c3c2F)CC1	TDF	0.0
N=c1nc(N2CCCCC2)cc(N)n1O	TDF	0.0

Please examine the following record next.
What classification did "COC(=O)c1cc(OC)c2c(c1-c1c(CO)cc(OC)c3c1OCO3)OCO2" end up with in this test?
0.0

----------
- Tested on: TDF
- assay.text: H1.0 immunofluorescence intensity relative to DMSO (% of DMSO); higher = stronger H1.0 induction, active = 120 or more
- run.parameters: concentration: 10 µM; 24 h
Rule: T for H1.0 immunofluorescence intensity not less than 100, F for anything less.

compound	answer.label
O=C(Nc1ccc(N2CCOCC2)c(S(=O)(=O)Nc2ccccc2Cl)c1)c1ccncc1 [Chk2 Inhibitor]	F
CC(=O)NC(Cc1c[nH]c2ccccc12)C(=O)OCc1cc(C(F)(F)F)cc(C(F)(F)F)c1 (centres undefined)	F
Cn1c(=O)[nH]c2ncn(C)c2c1=O [1,7-Dimethylxanthine]	F
O=C(O)C(O)C(O)C(=O)O.O=C(c1ccc(F)cc1)C1CCN(CCn2c(=O)[nH]c3ccccc3c2=O)CC1 [Ketanserin tartrate]	T
N#CC(=Cc1ccc(O)cc1)C(N)=C(C#N)C#N [Tyrphostin AG 112]	F
CC(C)(CN1C(=O)C(Cl)=C(Cl)C1=O)CN1C(=O)C(Cl)=C(Cl)C1=O	F
CC(CN(C)C)CN1c2ccccc2Sc2ccc(C#N)cc21 (centres undefined)	T
O=C(Nc1c(Cl)cncc1Cl)c1ccc(OC(F)F)c(OCC2CC2)c1	F
N#CC(=Cc1ccc(O)c(O)c1)C(=O)NCCCNC(=O)C(C#N)=Cc1ccc(O)c(O)c1 [Tyrphostin AG 537]	F
CC(=O)Oc1ccccc1C(=O)Oc1ccc(CO[N+](=O)[O-])cc1 [4-[(nitrooxy)methyl]phenyl 2-(acetyloxy)benzoate]	T

Please examine the following record next.
Quick check, H1.0 immunofluorescence intensity >= 100? "CCCc1cc(=O)oc2c(C(=O)N3CCCc4ccccc43)c(OC)cc(OC)c12"
T

----------
This listing pairs compounds with measured cell number.
- Test system: TDF
- assay.text: cell number relative to DMSO (% of DMSO); higher = more cells (less growth inhibition / toxicity)
- run.parameters: concentration: 10 µM; 24 h
Please respond with just the number, no unit label.

compound	measurement
CC(=O)NC(CSCC=C(C)CCC=C(C)C)C(=O)O (stereo unspecified)	101
CC(C)=CCCC(C)=CCOc1ccc2ccc(=O)oc2c1 [Auraptene]	103
C[C@H]1CN(C[C@H](Cc2ccccc2)C(=O)NCC(=O)O)CC[C@@]1(C)c1cccc(O)c1	102
CCCCCCC=CCCCCCCCCCC(=O)O [11(Z)-Octadecenoic acid]	101
Nc1nc2ccc(Cl)cc2c2nc(-c3ccco3)nn12	102

# next compound below
The compound listed as "O=C(O)c1ccc(NC(=O)[C@H](CC2CCCC2)n2cnc(C(F)(F)F)c2)nc1" shows cell number equal to 100

----------
This listing pairs compounds with measured H1.0 immunofluorescence intensity.
- Tested on: TDF
- assay.text: H1.0 immunofluorescence intensity relative to DMSO (% of DMSO); higher = stronger H1.0 induction, active = 120 or more
- run.parameters: concentration: 10 µM; 24 h
Please respond with just the number, no unit label.

Example entries and their recorded answers appear below.
compound	measurement
CN1C2CCC1CC(NC(=O)c1nn(C)c3ccccc13)C2.O=C(O)C=CC(=O)O (centres undefined) [LY-278,584 maleate]	99.1
O=c1oc2c(O)c(O)cc3c(=O)oc4c(O)c(O)cc1c4c23	102
CCCCNc1c(C(=O)OCC)c(C)nc2c1cnn2CC [Tracazolate]	92.8

The compound listed as "CC[C@H](C)[C@H](N)C(=O)N1CCC[C@H]1C(=O)N[C@H](C(=O)O)[C@@H](C)CC" shows H1.0 immunofluorescence intensity equal to 97.2

----------
This listing pairs compounds with measured H1.0 immunofluorescence intensity.
- System: HCC1569
- assay.text: H1.0 immunofluorescence intensity relative to DMSO (% of DMSO); higher = stronger H1.0 induction, active = 140 or more
- run.parameters: concentration: 10 µM; 24 h
Please respond with just the number, no unit label.

Example entries and their recorded answers appear below.
compound	target.of.assay	measurement
Cl.OC(CCN1CCCCC1)(c1ccccc1)C1CCCCC1 (configuration not stated) [Trihexyphenidyl hydrochloride]	HCC1569	75.4
CCCN(CCC)CCc1cccc2c1CC(=O)N2.Cl [Ropinirole hydrochloride]	HCC1569	101
Cl.O=C1NCC2(CCN(CCc3ccccc3)CC2)O1 [Fenspiride hydrochloride]	HCC1569	91
O=C(O)c1cc(N(Cc2ccccc2O)Cc2ccccc2O)ccc1O	HCC1569	93.1
N[C@@H](Cc1ccc(O)c(O)c1)C(=O)O [L-3,4-Dihydroxyphenylalanine]	HCC1569	90
OCC1OC(OC2OC=CC3C(O)C4OC4(CO)C23)C(O)C(O)C1O (configuration not stated)	HCC1569	89.4

The compound O=C1c2c(O)cc(O)cc2OC(c2ccc(O)c(O)c2)C1O (racemic) , when measured on HCC1569, yielded H1.0 immunofluorescence intensity of 103

----------
- System: HCC1569
- assay.text: H1.0 immunofluorescence intensity relative to DMSO (% of DMSO); higher = stronger H1.0 induction, active = 140 or more
- run.parameters: concentration: 10 µM; 24 h
recorded.metric: H1.0 immunofluorescence intensity
Please respond with just the number, no unit label.

Example entries and their recorded answers appear below.
molecule	measurement
CCCCS(=N)(=O)CCC(N)C(=O)O (racemic) [DL-Buthionine-[S,R]-sulfoximine]	99.9
O=C1CN2Cc3c(ccc(Cl)c3Cl)NC2=N1 [Anagrelide]	98.7
CCN1CCCC1CNC(=O)c1cc(S(=O)(=O)CC)c(N)cc1OC (centres undefined) [Amisulpride]	96.7
CCC=CCC=CCC=CCCCCCCCC(=O)O	97.6
CC(O)C(CO)NC(=O)C1CSSCC(NC(=O)C(N)Cc2ccccc2)C(=O)NC(Cc2ccccc2)C(=O)NC(Cc2c[nH]c3ccccc23)C(=O)NC(CCCCN)C(=O)NC(C(C)O)C(=O)N1 (centres undefined) [Octreotide]	98.9

The molecule listed as "CN(C)[C@@H]1CCc2[nH]c3ccc(NC(=O)c4ccc(F)cc4)cc3c2C1.Cl" shows H1.0 immunofluorescence intensity equal to 114

The molecule listed as "COc1cc(C)c(C=CC(C)=CC=CC(C)=CC(=O)O)c(C)c1C" shows H1.0 immunofluorescence intensity equal to 126

The molecule listed as C=C(C)C1CCC2(C(=O)O)CCC3(C)C(CCC4C5(C)CCC(O)C(C)(C)C5CCC43C)C12 (centres undefined) shows H1.0 immunofluorescence intensity equal to 97

The molecule listed as "CCCCC1=NC2(CCCC2)C(=O)N1Cc1ccc(-c2ccccc2-c2nn[nH]n2)cc1" shows H1.0 immunofluorescence intensity equal to 88.4

The molecule listed as CCOC(=O)OC(C)OC1=C(C(=O)Nc2ccccn2)N(C)S(=O)(=O)c2ccccc21 (centres undefined) shows H1.0 immunofluorescence intensity equal to 116

The molecule listed as "c1cc(OCCN2CCCCC2)cc(-c2n[nH]c3ccc(-c4ncn[nH]4)cc23)c1" shows H1.0 immunofluorescence intensity equal to 115

The molecule listed as "Nc1nc(=O)c2ncn(COCCO)c2[nH]1" shows H1.0 immunofluorescence intensity equal to 85.5

The molecule listed as CC(N)(Cc1ccc(O)c(O)c1)C(=O)O [L-alpha-Methyl DOPA] shows H1.0 immunofluorescence intensity equal to 86.8

The molecule listed as CCCCCC=CCC1OC1CC=CCC=CCCCC(=O)O (centres undefined) shows H1.0 immunofluorescence intensity equal to 97.7
